Assay: Inhibition of cell viability in human Gilteritinib-resistant MOLM-14 cells expressing FLT3 F691L mutant incubated for 48 hrs by Alamar blue assay
Format: functional, cell-based
Details: Gilteritinib-resistant MOLM-14, 48 h
value-type: IC50 (µM)
Answer with a number only, understood to be in µM.

**Query** If you can, please state the reported IC50 value of CCc1nc(C(N)=O)c(Nc2ccc(N3CCN(C(=O)CCCCCCNc4ccc(S(=O)(=O)NC(=O)c5ccc(N6CCN(CC7=C(c8ccc(Cl)cc8)CC(C)(C)CC7)CC6)cc5Oc5cnc6[nH]ccc6c5)cc4[N+](=O)[O-])CC3)c(OC)c2)nc1NC1CCOCC1 .
**Result** 3.28

====

Assay: Inhibition of cell viability in human Gilteritinib-resistant MOLM-14 cells expressing FLT3 F691L mutant incubated for 48 hrs by Alamar blue assay
Assay type: functional, cell-based
Settings: Gilteritinib-resistant MOLM-14, 48 h
pIC50: −log10 of the molar value.
value-type: pIC50

Some compounds with known pIC50 results, for comparison:
>  <smiles-notation>
CCc1nc(C(N)=O)c(Nc2ccc(N3CCC(N4CCN(C(=O)C5CCN(c6ccc(S(=O)(=O)NC(=O)c7ccc(N8CCN(CC9=C(c%10ccc(Cl)cc%10)CC(C)(C)CC9)CC8)cc7Oc7cnc8[nH]ccc8c7)cc6[N+](=O)[O-])CC5)CC4)CC3)c(OC)c2)nc1NC1CCOCC1

>  <pIC50>
< 5.00

$$$$
>  <smiles-notation>
CCc1nc(C(N)=O)c(Nc2ccc(N3CCC(N4CCN(C(=O)CNc5ccc(S(=O)(=O)NC(=O)c6ccc(N7CCN(CC8=C(c9ccc(Cl)cc9)CC(C)(C)CC8)CC7)cc6Oc6cnc7[nH]ccc7c6)cc5[N+](=O)[O-])CC4)CC3)c(OC)c2)nc1NC1CCOCC1

>  <pIC50>
< 5.00

$$$$

Consider the record given below.
**Query** Param item = CCc1nc(C(N)=O)c(Nc2ccc(N3CCN(C(=O)C4CCN(c5ccc(S(=O)(=O)NC(=O)c6ccc(N7CCN(CC8=C(c9ccc(Cl)cc9)CC(C)(C)CC8)CC7)cc6Oc6cnc7[nH]ccc7c6)cc5[N+](=O)[O-])CC4)CC3)c(OC)c2)nc1NC1CCOCC1 ; retrieve measured pIC50.
**Result** < 5.00

src = ChEMBL document CHEMBL6153063
